Test system: CAKI-1 renal
assayRemarks: NCI tumour cell line growth inhibition, 48 h
outcomeMeasure: TGI

Illustrative cases are given below, each with its answer.
Prompt line: Note TGI for the compound shown: "COc1ccc(/C(C#N)=C/c2ccccc2OC)cc1"
Response line: > 100 µM

Prompt line: Note TGI for the compound shown: COc1cc(C2C(C(=O)O)=C(CO)Oc3cc4c(cc32)OCO4)cc(OC)c1O (centres undefined)
Response line: > 100 µM

Prompt line: Note TGI for the compound shown: "Cc1ccc(C2=Nc3cccc4cccc(c34)N2)cc1"
Response line: > 100 µM

Please turn your attention to the following entry.
Prompt line: Note TGI for the compound shown: "COc1ccc(-c2nc3sc4c(c3c(=O)[nH]2)CCCCCC4)cc1"
Response line: > 33.2 µM

====

Tested on: M14 melanoma
assayRemarks: NCI tumour cell line growth inhibition, 48 h
outcomeMeasure: TGI

Illustrative cases are given below, each with its answer.
Prompt line: Jot down TGI (M14 melanoma) of COc1cc(C2CC(c3ccc4c(c3)OCO4)=NN2C=O)cc(OC)c1OC (stereo not drawn) .
Response line: > 100 µM

Prompt line: Jot down TGI (M14 melanoma) of "COc1ccc(/C=C(/C#N)C(N)=O)cc1OC" .
Response line: > 100 µM

Continuing:
Prompt line: Jot down TGI (M14 melanoma) of "COc1ccc(-c2csc(N(C(=O)N3CCN(c4cc5c(cc4F)c(=O)c(C(=O)O)cn5C4CC4)CC3)c3ccccc3)n2)cc1" .
Response line: > 100 µM

====

System: HCC-2998 colon
assayRemarks: NCI tumour cell line growth inhibition, 48 h
outcomeMeasure: TGI

Illustrative cases are given below, each with its answer.
Prompt line: Note TGI for the compound shown: COc1cc(Cn2c3ccccc3c3cc(C)c4c(c32)C=CC(C)(CCC=C(C)C)O4)cc2c1[nH]c1ccccc12 (stereo not drawn)
Response line: > 100 µM

Prompt line: Note TGI for the compound shown: "CN1CCC(n2cnc(-c3ccc(F)cc3)c2-c2ccnc(NCCO)n2)CC1"
Response line: > 25 µM

Please turn your attention to the following entry.
Prompt line: Note TGI for the compound shown: "CC(=O)N1C(=O)/C(=C\C(=O)c2ccc([N+](=O)[O-])cc2)c2ccccc21"
Response line: 36.7 µM

====

Tested on: HCC-2998 colon
assayRemarks: NCI tumour cell line growth inhibition, 48 h
outcomeMeasure: log10(TGI) (log10 of the value in µM)
Please note: log10 values; quantity TGI; unit µM.

Illustrative cases are given below, each with its answer.
Prompt line: Note log10(TGI) for the molecule shown: "COc1ccc2sc3c(NCCCN(C)C)nc4ccccc4c3c(=O)c2c1"
Response line: 0.51

Prompt line: Note log10(TGI) for the molecule shown: "C=CCOc1cccc(/C=C2\SC(=Nc3ccc(O)cc3)NC2=O)c1"
Response line: 0.96

Prompt line: Note log10(TGI) for the molecule shown: "NC(=O)c1cc2cc(Cl)cc(Cl)c2oc1=Nc1ccc(F)cc1"
Response line: 1.69

Prompt line: Note log10(TGI) for the molecule shown: "CN(C)CC(=O)Nc1ccc(Cn2nnc3c2C(=O)c2nnn(Cc4ccc(NC(=O)CN(C)C)cc4)c2C3=O)cc1"
Response line: -0.43

Prompt line: Note log10(TGI) for the molecule shown: COc1ccc(/C=C2\C(=O)N(C3OC(COC(C)=O)C(OC(C)=O)C(OC(C)=O)C3OC(C)=O)c3ccccc3N=C2N)cc1 (stereo not given)
Response line: 1.74

Provide log10(TGI) values for the following items, in order.
1. Cc1cc(N(CCCl)CCCl)ccc1C=Nc1ccc(-c2csc(Cc3ccccc3)n2)cc1
2. Cc1ccccc1[P+](Cc1ccccc1)(c1ccccc1)c1ccccc1
3. COC(=O)[C@@]1(C)CC[C@]2(C)CC[C@]3(C)C4=CC=C5C(=CC(=O)C(O)=C5C)[C@]4(C)[C@@H](O)C[C@@]3(C)[C@@H]2C1

Response line:
1: 1.52; 2: 1.37; 3: 1.40

Source listed as PubChem BioAssay (NCI).
